Origin of values: patent US20160297884A1

Kd listing for selected binders.
- test_target: T1, Human BCMA (human, UniProt Q02223 1-54, limits assumed)
- T1 construct: also called huBCMA; B-cell maturation antigen
- T1 sequence (looked up): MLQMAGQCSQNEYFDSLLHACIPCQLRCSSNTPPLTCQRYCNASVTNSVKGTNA
- protocol_summary: SPR, IgG immobilised, human BCMA analyte
experimental_readout: Kd (pM)

{"columns": ["binder", "unit_abbrev", "reported_measurement"],
 "data": [
  ["COMBO_Rd4_6nM_C12 (antibody, V domains shown, IgG) VH: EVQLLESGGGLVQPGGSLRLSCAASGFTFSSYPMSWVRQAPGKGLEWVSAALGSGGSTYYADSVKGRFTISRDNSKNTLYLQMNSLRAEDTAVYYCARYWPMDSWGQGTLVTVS VL: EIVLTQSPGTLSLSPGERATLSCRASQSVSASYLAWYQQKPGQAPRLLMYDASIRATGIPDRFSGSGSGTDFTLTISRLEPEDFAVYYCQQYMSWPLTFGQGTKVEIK", "pM", 20],
  ["C01_Rd4_0.6nM_C06 (antibody, V domains shown, IgG) VH: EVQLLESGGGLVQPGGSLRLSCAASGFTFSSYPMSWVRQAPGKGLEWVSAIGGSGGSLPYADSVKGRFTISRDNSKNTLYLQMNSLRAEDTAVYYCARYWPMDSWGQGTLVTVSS VL: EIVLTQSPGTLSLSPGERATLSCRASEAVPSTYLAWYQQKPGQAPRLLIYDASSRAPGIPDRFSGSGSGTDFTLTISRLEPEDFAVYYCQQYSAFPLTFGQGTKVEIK", "pM", 847],
  ["COMBO_Rd4_0.6nM_C29 (antibody, V domains shown, IgG) VH: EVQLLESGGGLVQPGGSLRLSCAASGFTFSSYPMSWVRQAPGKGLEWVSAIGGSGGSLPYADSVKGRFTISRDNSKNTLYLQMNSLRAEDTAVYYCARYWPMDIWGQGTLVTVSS VL: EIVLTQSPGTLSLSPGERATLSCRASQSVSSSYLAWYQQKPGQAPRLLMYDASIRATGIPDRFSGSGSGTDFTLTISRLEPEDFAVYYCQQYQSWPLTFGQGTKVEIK", "pM", 19]
]}
